The reported numbers originate from patent US20170217976A1.

Target: MOR (Rattus norvegicus, UniProt P33535)
Construct: from tissue
Sequence (P33535 whole entry): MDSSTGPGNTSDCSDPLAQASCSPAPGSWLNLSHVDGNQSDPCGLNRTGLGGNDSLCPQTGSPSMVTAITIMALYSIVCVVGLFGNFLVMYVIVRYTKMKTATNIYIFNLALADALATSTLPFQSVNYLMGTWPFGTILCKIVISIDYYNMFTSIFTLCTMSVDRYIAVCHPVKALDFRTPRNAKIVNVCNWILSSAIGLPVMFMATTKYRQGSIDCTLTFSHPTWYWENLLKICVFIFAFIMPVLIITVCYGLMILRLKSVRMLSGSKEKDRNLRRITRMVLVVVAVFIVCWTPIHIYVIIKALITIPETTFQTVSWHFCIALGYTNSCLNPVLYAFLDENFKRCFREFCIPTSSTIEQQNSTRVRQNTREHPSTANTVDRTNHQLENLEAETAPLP
Test: Opioid receptor binding, MOR, rat brain membranes
Conditions: in vitro binding assay, rat brain membranes; read-out: Binding Ki (nM) MOR
For each of the compounds below, state its log10(Ki).
Please interpret these as log10 of Ki where Ki is in nM.

{"compound": "CO[C@@]12CC[C@@H](N[C@@H](CO)C(=O)OC(C)(C)C)[C@@H]3Oc4c(O)ccc5c4[C@@]31CCN(C)[C@@H]2C5", "obs value": -0.22}
{"compound": "CO[C@@]12CCC(=O)[C@@H]3Oc4c(O)ccc5c4[C@@]31CCN(C)[C@@H]2C5 [Compound 14-OMO, 14-O-methyloxymorphone, reference compound]", "obs value": -1.00}
{"compound": "CCOC(=O)CNC1CCC2(OCCCc3ccccc3)C3Cc4ccc(O)c5c4C2(CCN3C)C1O5 (stereo not drawn) [7-Et ester]", "obs value": -0.37}
{"compound": "CCCCCCCCOC(=O)CN[C@@H]1CC[C@@]2(OC)[C@H]3Cc4ccc(O)c5c4[C@@]2(CCN3C)[C@H]1O5", "obs value": 0.41}
{"compound": "CN1CCC23c4c5ccc(O)c4OC2C(NCC(=O)OC(C)(C)C)CCC3(OCCCc2ccccc2)C1C5 (stereo not drawn) [7-t-Bu ester]", "obs value": 0.15}

IN: Item under review: `CO[C@@]12CC[C@@H](N[C@@H](C(=O)OC(C)(C)C)C(C)C)[C@@H]3Oc4c(O)ccc5c4[C@@]31CCN(C)[C@@H]2C5` . Reported log10(Ki)?
OUT: 0.30
